// data source = ChEMBL document CHEMBL1157037

Measured pIC50 by item
# procedure text: Antiproliferative activity against human fibroblast cells after 48 hrs by resazurin reduction assay
# Assay type: functional, cell-based
Here pIC50 is given on a logarithmic scale as minus log10 of the concentration in mol/L.

CCOc1ccc2ccc(-c3cc4ccccc4nc3OCC)cc2n1 : 4.43

Now consider the entry below.
Kindly indicate its recorded pIC50. Item: `COc1ccc2ccc(-c3cc4ccccc4nc3OC)cc2n1`
4.27

###

# System: PA-1
# procedure text: Antiproliferative activity against human PA1 cells after 48 hrs by resazurin reduction assay
# Format: functional, cell-based
# condition: PA-1, 48 h
Measured IC50 by item
Please provide the amount together with its unit, number first.

COc1ccc2ccc(-c3cc4ccccc4nc3OC)cc2n1 : 36 µM
CCOc1ccc2ccc(-c3cc4ccc(-c5cc6ccccc6nc5OCC)cc4nc3OCC)cc2n1 : 50 µM

Now consider the entry below.
Please respond with reported IC50 (system PA-1) for `CCOc1ccc2ccc(-c3cc4ccccc4nc3OCC)cc2n1` .
37 µM
